All figures here come from paper PMC11012289.

target: IRAP (Homo sapiens); construct: The screen was performed with the soluble truncated IRAP enzyme; made in house; experiment: Primary fluorescence IRAP assay (L-Leucine-7-amido-4-methylcoumarin cleavage); assay type: biochemical; details: 37.5 µM L-Leucine-7-amido-4-methylcoumarin, 60 min RT, dose-response 20 µM-27.4 nM
measured quantity: Fluorescence pIC50

>>> df
                                   compound  reported_measurement
0  Cc1ccc(-c2nc(C3CCCN3C(=O)NCc3ccccc3)n3ccccc23)cc1 (racemic) [QHL36]                  5.40
1  COCCN1CCc2cnc(NCc3ccc(S(N)(=O)=O)cc3)cc21 [QHL47]                  4.99
2    Fc1ccc(F)c(Cn2ccc3ncccc32)c1Cl [QHL31]                  5.46
3  c1scc2c(N3CCCCCC3)nc(N3CCC3)nc12 [QHL44]                  5.19
4  NC(=O)CCc1ccc2c(c1)nc(N)n2Cc1ccc(-c2ccccc2)cc1 [QHL42]                  5.32
5  CCCCc1nc2ccn(Cc3cccc(C#N)c3)c(=O)c2n1Cc1cccc(C#N)c1 [QHL41]                  5.33
6  COc1cc2c(cc1-c1cnco1)C(=O)N(C)C(C)(C=Cc1ccncc1)N2 (stereo not drawn) [QHL33]                  5.43
7  COc1cc(CN2C(Cc3ccc(S(C)(=O)=O)cc3)CCC2c2cccnc2)cc(OC)c1 (stereo not drawn) [QHL35]                  5.40
8  CCOC(=O)c1c(Cl)cc(C)nc1N1CCCC(Cc2ccc(C(=O)N(C)C)cc2)C1 (stereo not drawn) [QHL39]                  5.33

---

target: IRAP (Homo sapiens, UniProt Q9UIQ6); construct: The screen was performed with the soluble truncated IRAP enzyme; made in house; experiment: Deselection fluorescence IRAP assay with 10 µM zinc; format: biochemical; conditions: 10 µM ZnSO4 in assay buffer
Sequence (Q9UIQ6 155-1025 limits assumed): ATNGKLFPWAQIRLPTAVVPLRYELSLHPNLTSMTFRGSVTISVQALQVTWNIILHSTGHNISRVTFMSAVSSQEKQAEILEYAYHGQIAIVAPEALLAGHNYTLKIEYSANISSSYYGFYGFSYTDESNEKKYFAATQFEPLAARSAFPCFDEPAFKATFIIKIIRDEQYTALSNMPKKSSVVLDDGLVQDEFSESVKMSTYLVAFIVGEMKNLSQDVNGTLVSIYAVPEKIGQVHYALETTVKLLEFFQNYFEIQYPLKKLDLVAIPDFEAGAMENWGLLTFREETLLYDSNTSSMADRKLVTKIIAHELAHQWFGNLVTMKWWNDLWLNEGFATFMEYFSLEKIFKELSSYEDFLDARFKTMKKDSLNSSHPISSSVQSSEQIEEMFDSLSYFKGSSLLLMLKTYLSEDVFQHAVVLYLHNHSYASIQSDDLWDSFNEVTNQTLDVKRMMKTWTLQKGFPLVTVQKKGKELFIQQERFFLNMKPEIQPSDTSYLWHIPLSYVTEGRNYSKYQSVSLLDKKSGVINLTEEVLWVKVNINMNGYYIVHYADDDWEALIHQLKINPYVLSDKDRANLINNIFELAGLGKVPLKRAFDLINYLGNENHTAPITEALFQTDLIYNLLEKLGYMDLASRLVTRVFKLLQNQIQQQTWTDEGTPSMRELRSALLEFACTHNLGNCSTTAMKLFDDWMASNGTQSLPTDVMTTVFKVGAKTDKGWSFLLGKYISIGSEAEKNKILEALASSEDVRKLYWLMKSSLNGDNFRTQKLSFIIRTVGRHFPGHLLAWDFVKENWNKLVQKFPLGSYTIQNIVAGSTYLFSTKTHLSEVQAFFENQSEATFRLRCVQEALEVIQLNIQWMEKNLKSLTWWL
measured quantity: Fluorescence + Zn pIC50

                                   molecule                          test_target        measured_quantity  reported_measurement
0  COCCN1CCc2cnc(NCc3ccc(S(N)(=O)=O)cc3)cc21  IRAP (Homo sapiens, UniProt Q9UIQ6)  Fluorescence + Zn pIC50                  4.99
1  COc1cc2c(cc1-c1cnco1)C(=O)N(C)C(C)(C=Cc1ccncc1)N2 (stereo not drawn)  IRAP (Homo sapiens, UniProt Q9UIQ6)  Fluorescence + Zn pIC50                  5.42
2       c1ccn(CCCSc2nnc3ccc(N4CCCC4)nn23)c1  IRAP (Homo sapiens, UniProt Q9UIQ6)  Fluorescence + Zn pIC50                   4.7
3  CCOC(=O)c1c(Cl)cc(C)nc1N1CCCC(Cc2ccc(C(=O)N(C)C)cc2)C1 (stereo not drawn)  IRAP (Homo sapiens, UniProt Q9UIQ6)  Fluorescence + Zn pIC50                  5.33
4             Cc1cc2nc(N)n(Cc3ccccc3)c2cc1C  IRAP (Homo sapiens, UniProt Q9UIQ6)  Fluorescence + Zn pIC50                  4.74
5  CCn1c(=O)n(CC(=O)N(C)CCc2ccc(O)c3[nH]c(=O)sc23)c2ccccc21  IRAP (Homo sapiens, UniProt Q9UIQ6)  Fluorescence + Zn pIC50                  5.12
6          c1scc2c(N3CCCCCC3)nc(N3CCC3)nc12  IRAP (Homo sapiens, UniProt Q9UIQ6)  Fluorescence + Zn pIC50                  5.18
7  NC(=O)CCc1ccc2c(c1)nc(N)n2Cc1ccc(-c2ccccc2)cc1  IRAP (Homo sapiens, UniProt Q9UIQ6)  Fluorescence + Zn pIC50                  5.32
8  CCCCc1nc2ccn(Cc3cccc(C#N)c3)c(=O)c2n1Cc1cccc(C#N)c1  IRAP (Homo sapiens, UniProt Q9UIQ6)  Fluorescence + Zn pIC50                  5.11

---

biological target: IRAP (Homo sapiens); construct: The screen was performed with the soluble truncated IRAP enzyme; made in house; experiment: Primary fluorescence IRAP assay (L-Leucine-7-amido-4-methylcoumarin cleavage); assay type: biochemical; settings: 8 µl end volume, 120 min; read-out: EC50 (best-fit)
measured quantity: pEC50
In plain terms, pEC50 is the concentration in mol/L turned into minus its base-10 logarithm.

Fetch value of pEC50 on IRAP (Homo sapiens) for O=S(=O)(Nc1cccc(-c2nnn[nH]2)c1)c1cc(Cl)c(Cl)cc1Cl [I, reference compound] .
4.43

---

target: IRAP (Homo sapiens, UniProt Q9UIQ6); construct: The screen was performed with the soluble truncated IRAP enzyme; made in house; assay: Primary fluorescence IRAP assay (L-Leucine-7-amido-4-methylcoumarin cleavage); assay type: biochemical; conditions: 37.5 µM L-Leucine-7-amido-4-methylcoumarin, 60 min RT, dose-response 20 µM-27.4 nM; read-out: Fluorescence IC50
pIC50: −log10 of the molar value.
measured quantity: pIC50

>>> df
                                   molecule                          test_target  measured_quantity  reported_measurement
0  CC(C)n1cc(C(=O)N2CCc3n[nH]c(-c4cccc(F)c4)c3CC2)cn1  IRAP (Homo sapiens, UniProt Q9UIQ6)              pIC50                  5.50

a = COc1ccc([C@@H]2c3nnnn3CCN2CCCN(C)c2ccccc2)c(C)c1
b = NC(=O)CCc1ccc2c(c1)nc(N)n2Cc1ccc(-c2ccccc2)cc1
Lab notebook, comparison: a versus b , higher pIC50 goes to which? Indicate which entry you chose by stating its label.
a

a = CSc1[nH]c(-c2ccccc2)nc1S(=O)(=O)c1ccccc1
b = NCC[C@H]1CCCCN1C(=O)Cn1nc(-c2ccc(Cl)cc2)c2c1CCCC2
Lab notebook, comparison: a versus b , higher pIC50 goes to which? Indicate which entry you chose by stating its label.
b

I = CC(C)CC(C(=O)NO)S(=O)(=O)N1CCN(c2ccc(F)cc2)CC1 (stereo not drawn)
II = c1scc2c(N3CCCCCC3)nc(N3CCC3)nc12
Which entry shows the lesser value of pIC50 here, I or II ? Indicate which entry you chose by stating its label.
II

---

target: IRAP (Homo sapiens, UniProt Q9UIQ6); construct: The screen was performed with the soluble truncated IRAP enzyme; made in house; test: Orthogonal absorbance IRAP assay (L-Leucine para-nitroanilide cleavage); assay type: biochemical; conditions: 1 mM L-Leucine p-Nitroanilide, 120 min RT
measured quantity: Absorbance pIC50

>>> df
                                   molecule  measured_quantity  reported_measurement
0  CCOC(=O)c1c(Cl)cc(C)nc1N1CCCC(Cc2ccc(C(=O)N(C)C)cc2)C1 (stereo not shown) [QHL39]   Absorbance pIC50                  5.12
1     Cc1cc2nc(N)n(Cc3ccccc3)c2cc1C [QHL49]   Absorbance pIC50                  5.65
2  NC(=O)CCc1ccc2c(c1)nc(N)n2Cc1ccc(-c2ccccc2)cc1 [QHL42]   Absorbance pIC50                  5.40
3  Cc1ccc(-c2nc(C3CCCN3C(=O)NCc3ccccc3)n3ccccc23)cc1 (racemic) [QHL36]   Absorbance pIC50                  5.80
4  COc1cc2c(cc1-c1cnco1)C(=O)N(C)C(C)(C=Cc1ccncc1)N2 (stereo not shown) [QHL33]   Absorbance pIC50                 5.510

---

biological target: IRAP (Homo sapiens, UniProt Q9UIQ6); construct: The screen was performed with the soluble truncated IRAP enzyme; made in house; assay: Primary fluorescence IRAP assay (L-Leucine-7-amido-4-methylcoumarin cleavage); assay type: biochemical; details: calculated from (pIC50Fluorescence − LogD)
measured quantity: LipE

Recorded results for 4 molecules are shown here.
>>> print(df.to_string())
                                   molecule  reported_measurement
0  CC(C)[C@@H](CS(=O)(=O)N(C)CC1CCc2ccccc2C1)C(=O)NO (stereo partly drawn) [QHL16]                  3.14
1  CCCNc1nc(N(C)C)nc2cc(OC)c(OC)cc12 [QHL32]                  3.10
2  NCC[C@H]1CCCCN1C(=O)Cn1nc(-c2ccc(Cl)nc2)c2c1CCCC2 [QHL38]                  3.06
3  COCCN1CCc2cnc(NCc3ccc(S(N)(=O)=O)cc3)cc21 [QHL47]                  3.57

I = CSc1[nH]c(-c2ccccc2)nc1S(=O)(=O)c1ccccc1 [QHL28]
II = CC(C)C(CS(=O)(=O)N1CCC(c2ccc(F)cc2Cl)C1)C(=O)NO (stereo not drawn) [QHL6]
III = COc1ccc([C@@H]2c3nnnn3CCN2CCCN(C)c2ccccc2)c(C)c1 [QHL13]
Ranking field: LipE; order: falling. Reply: labels, ordered per the request.
II, III, I
(II: 3.57, III: 2.39, I: 1.54)
